targetDesc: Prostaglandin G/H synthase 1 (Ovis aries) (UniProt P05979)
Sequence (P05979 whole entry): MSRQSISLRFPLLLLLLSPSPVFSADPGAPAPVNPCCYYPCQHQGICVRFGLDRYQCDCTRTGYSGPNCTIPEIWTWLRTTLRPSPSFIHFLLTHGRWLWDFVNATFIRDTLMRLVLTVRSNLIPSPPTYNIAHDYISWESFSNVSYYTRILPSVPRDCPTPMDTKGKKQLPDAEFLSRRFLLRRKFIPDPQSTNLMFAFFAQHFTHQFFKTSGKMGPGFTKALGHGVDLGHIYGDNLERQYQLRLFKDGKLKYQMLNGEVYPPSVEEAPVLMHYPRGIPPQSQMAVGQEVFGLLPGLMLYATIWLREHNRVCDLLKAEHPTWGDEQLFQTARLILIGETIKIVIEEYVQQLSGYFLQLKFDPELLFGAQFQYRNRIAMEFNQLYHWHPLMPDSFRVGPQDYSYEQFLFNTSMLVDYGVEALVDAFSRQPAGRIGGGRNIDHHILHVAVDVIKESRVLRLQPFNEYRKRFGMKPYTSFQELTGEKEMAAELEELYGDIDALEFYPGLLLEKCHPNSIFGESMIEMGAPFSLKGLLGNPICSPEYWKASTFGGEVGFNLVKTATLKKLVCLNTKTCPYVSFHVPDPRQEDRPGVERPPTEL
experimentalParameters: at 10 µM
Description: Inhibition of ovine COX1 using PGEH2 as substrate at 10 uM after 10 mins by EIA
The source made the active and inactive calls. No cut-off for these calls is given here.
measurementLabel: inhibition

substanceSmiles	targetDesc	measuredValue
CCOC(=O)Cc1cc(-c2ccc(S(N)(=O)=O)cc2)n(-c2cccc(F)c2)c1C	Prostaglandin G/H synthase 1 (Ovis aries) (UniProt P05979)	inactive
Cc1c(CC(=O)NC(C)C)cc(-c2ccc(S(C)(=O)=O)cc2)n1-c1ccc(F)cc1	Prostaglandin G/H synthase 1 (Ovis aries) (UniProt P05979)	36%
CCCNC(=O)Cc1cc(-c2ccc(S(N)(=O)=O)cc2)n(-c2cccc(F)c2)c1C	Prostaglandin G/H synthase 1 (Ovis aries) (UniProt P05979)	inactive
CCOC(=O)Cc1cc(-c2ccc(S(N)(=O)=O)cc2)n(-c2ccc(F)cc2)c1C	Prostaglandin G/H synthase 1 (Ovis aries) (UniProt P05979)	inactive

Measured values drawn from ChEMBL document CHEMBL3400072 for this set.
